Exercise: state measured z-score for each of the molecules provided.
assay: modulators of HCV replicon luciferase signal, primary screen, HCV replication inhibitor project, Huh7 cells, luciferase reporter (AID 1109); conditions: 48 h, higher = more signal;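 note: huh7 hepatoma cells harbouring a luciferase neomycin HCV replicon reporter; luciferase luminescence as measure of HCV replicon replication; test concentration not given here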
Answers are plain numbers.

Dear colleague, could you send me z-score for each of the items below? Thanks.
1. COc1ccc([Si](C)(C)[C@@H]2[C@@H](CCn3cc(CCO)nn3)O[C@]3(C(=O)N(Cc4ccc(N5C(=O)c6cccc7cccc5c67)cc4)c4ccccc43)[C@H]2C)cc1
2. C=CCNC(=O)[C@@H]1[C@H]2C(=O)O[C@H](c3ccccc3)[C@H](c3ccccc3)N2[C@H](c2ccc(O)cc2)[C@@]12C(=O)Nc1ccccc12
3. C=CCNC(=O)[C@@H]1[C@H]2C(=O)O[C@H](c3ccccc3)[C@H](c3ccccc3)N2[C@H](c2ccc(O)cc2)[C@@]12C(=O)Nc1ccc(C#Cc3ccc(OC)cc3)cc12

result:
-5.16
-0.603
-2.67

====

test system: glycogen synthase kinase-3 (GSK3A per assay name; protocol says GSK3B); assay: GSK3 binders on small-molecule microarrays, primary screen, biochemical, small-molecule microarray, 635 nm fluorescence, GSK3A (AID 1103); conditions: small-molecule microarray binding, fluorescence 635 nm; higher = more signal; note: the record names both GSK3A and GSK3B
Kindly supply the reported composite z-score values for the records listed here.
Answers are plain numbers.

These solved cases illustrate the format of a correct answer.
• O=C1O[C@H](c2ccccc2)[C@H](c2ccccc2)N2[C@H]1[C@@H](C(=O)Nc1nc3ccccc3s1)[C@]1(C(=O)Nc3ccc(C#CCCO)cc31)[C@H]2c1ccccc1OCCO = 1.31
• COC(=O)[C@@]1(CCC(=O)OC(C)(C)C)COC(c2ccc(OCCCO)cc2)=N1 = -1.19

Now, please, on to the next compound.
query: What measured composite z-score goes with C=C(/C(=C/C[C@H](OC(=O)c1ccncc1)c1cccc(OCCO)c1)c1cc(C(=O)OC)ccc1OC)C(C)C ?
result: -0.129

====

molecular target: E3 ubiquitin-protein ligase XIAP (Homo sapiens); test: XIAP binders, primary screen, biophysical, small-molecule microarray, fluorescence 635 nm (AID 1181); settings: small-molecule microarray binding, higher = more signal;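 note: score merges 667 nm emission and signal to noise over triplicate slides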
Please go through the items and note down their composite z-score.
Answers are plain numbers.

These recorded examples may help you get a feel for the data.
* COc1ccc(C#Cc2ccc3c(c2)[C@]2(C(=O)N3)[C@H](c3ccc(O)cc3)N3[C@H](c4ccccc4)[C@H](c4ccccc4)OC(=O)[C@H]3[C@@H]2C(N)=O)cc1 | 0.237
* C=CCNC(=O)[C@@H]1[C@H]2C(=O)O[C@H](c3ccccc3)[C@H](c3ccccc3)N2[C@H](c2ccc(O)cc2)[C@@]12C(=O)N(C(=O)OCCOC)c1ccc(C#Cc3ccc(OC)cc3)cc12 | 0.14

query: Please look up its composite z-score: CC(=O)OC(C/C=C\B1OC(C)(C)C(C)(C)O1)c1ccccc1 (stereo not drawn)
result: -0.0256

====

assay: PSAC antagonists in infected red cells, primary screen, cell-based, P. falciparum Indochina, OD700, 18 h (AID 1157); settings: P. falciparum Indochina infected erythrocytes, osmotic lysis OD700, 18 h; higher = more signal, called active from +8 up or from −8 down
Activity calls are given as the source filed them.
Reported property: z-score

Previously resolved entries follow.
• COc1ccc([Si](C)(C)[C@H]2[C@H](CC(=O)N(CCO)Cc3ccccc3)O[C@@]3(C(=O)N(Cc4ccc(N5CCC5=O)cc4)c4ccccc43)[C@@H]2C)cc1 = 2.17 (inactive)
• CC1CC/C=C\[C@H]2OC34C=CCN(C(C)C)C(=O)[C@H]3N(C(CO)C(C)C)C(=O)[C@@H]4C2C(=O)O1 (stereo partly drawn) = -0.531 (inactive)
• CC(C)N1CC=CC23O[C@@H]4/C=C\CCCOC(=O)C4[C@H]2C(=O)N(CCCO)[C@@H]3C1=O (stereo partly drawn) = -0.083 (inactive)
• CO[C@H]1O[C@H](CO)[C@@H](OC(=O)Nc2ccccc2)[C@H](OC(=O)Nc2ccccc2-c2ccccc2)[C@H]1OC(=O)Nc1ccccc1-c1ccccc1 = -1.81 (inactive)
• CCCCCCC#C[Si](O[C@H](c1ccccc1)c1cn(Cc2ccccc2)nn1)(C(C)C)C(C)C = -0.327 (inactive)
• CCCNC(=O)[C@@H]1c2ccccc2C(=O)N(Cc2cc(C(F)(F)F)cc(C(F)(F)F)c2)[C@H]1c1ccc(CO)cc1 = 0.77 (inactive)
• CC(C)CCC[C@@H](C)[C@H]1CC[C@@]2(C)C3=C(CC[C@]12C)[C@@]1(C)CC[C@H](OC(=O)CCl)C(C)(C)C1CC3 (stereo partly drawn) = 0.01 (inactive)
• O=C(N1CCCCC1)[C@@]1(Cc2ccccc2)N=C(c2ccc(OCCCO)cc2)O[C@H]1c1ccccc1 = -0.657 (inactive)

Parameter requested: z-score. Apply to each item below.
1. CC(C)N1C(=O)c2ccccc2[C@@H](C(=O)NCc2ccccc2)[C@@H]1c1ccc(CO)cc1
2. C#CCOc1ccc(C[C@H]2C(=O)O[C@H](Cc3ccccc3)[C@H](/C=C/C3CC3)N2CC#C)cc1

result:
1: 0.818 (inactive); 2: -0.383 (inactive)

Count: 4. Required value per item: z-score.
1. COc1ccc([Si](C)(C)[C@H]2[C@H](CCO)O[C@@]3(C(=O)N(Cc4ccc(N5C(=O)c6cccc7cccc5c67)cc4)c4ccccc43)[C@@H]2C)cc1
2. [N-]=[N+]=Nc1ccccc1[C@H]1OC(c2ccc(OCCCO)cc2)=N[C@@]1(Cc1ccccc1)C(N)=O
3. NC(=O)N1C(=O)C2C(C1=O)C1C=C(c3ccc(CO)cc3)C2C(C2CC2)N1Cc1cc2c(cc1Br)OCO2 (stereo not drawn)
4. COc1ccc(C#Cc2ccc3c(c2)[C@]2(C(=O)N3)[C@H](c3ccc(O)cc3)N3[C@H](c4ccccc4)[C@H](c4ccccc4)OC(=O)[C@H]3[C@@H]2C(=O)N2CCN(c3ncccn3)CC2)cc1

result:
["1.23 (inactive)", "7.66 (inactive)", "-1.43 (inactive)", "0.564 (inactive)"]

Please state, for each entry, its recorded z-score.
1. CC(C)C(=C=CC[C@H](O)c1ccc(OCCO)cc1)C[C@H](O)COCc1ccccc1
2. C=CCNC(=O)[C@@H]1[C@H]2C(=O)O[C@H](c3ccccc3)[C@H](c3ccccc3)N2[C@H](c2ccc(O)cc2)[C@@]12C(=O)Nc1ccccc12
3. C=CCC(OC(C)=O)[C@@H]1[C@@H](N(Cc2cccc3ccccc23)C(=O)c2cccc3ccccc23)c2cc(OCCCO)ccc2N1C(=O)Cc1ccc(OC)cc1 (stereo partly drawn)

result:
1. 0.923 (inactive)
2. 0.983 (inactive)
3. -0.618 (inactive)
